Test system: MDA-MB-231 human breast cancer cells
Assay: MTT cell proliferation assay, MDA-MB-231
Type: cell-based
Conditions: MDA-MB-231 cells, SEM < 10%, read-out: GI50s MDA-MB-231
parameter measured: IC50 (µM)

I. CC1=C(/C=C/C(C)=C/C=C/C(C)=C\C(=O)NCc2cccc(F)c2)C(C)(C)CCC1n1ccnc1 (stereo not drawn)
II. CC1=C(/C=C/C(C)=C/C=C/C(C)=C\C(=O)NCc2ccccc2)C(C)(C)CCC1n1ccnc1 (stereo not drawn)
III. CC1=C(/C=C/C(C)=C/C=C/C(C)=C\C(=O)NCCc2ccc(O)cc2)C(C)(C)CC=C1c1cccnc1
IV. CC1=C(/C=C/C(C)=C/C=C/C(C)=C\C(=O)NCCc2ccc(O)cc2)C(C)(C)CC=C1c1cncnc1
Request: With the 4 molecules above, produce a list ordered by ascending IC50. To answer, write out the labels according to the requested order.
Result: I, II, IV, III
(I: 1.65 µM, II: 5.88 µM, IV: 14.5 µM, III: 26.9 µM)

I. CC1=C(/C=C/C(C)=C/C=C/C(C)=C\C(=O)Nc2ccccc2)C(C)(C)CCC1n1ccnc1 (stereo not drawn)
II. CC1=C(/C=C/C(C)=C/C=C/C(C)=C\C(=O)Nc2ccccc2)C(C)(C)CC=C1c1cncnc1
Request: I or II : whose IC50 is greater? Please indicate the selected item by its label.
Result: II
